These measurements were taken from patent US20200369772A1.

# Tested System: T1, human PD-L2 (full-length, on cells) (human, UniProt Q9BQ51 20-273)
# T1 chain: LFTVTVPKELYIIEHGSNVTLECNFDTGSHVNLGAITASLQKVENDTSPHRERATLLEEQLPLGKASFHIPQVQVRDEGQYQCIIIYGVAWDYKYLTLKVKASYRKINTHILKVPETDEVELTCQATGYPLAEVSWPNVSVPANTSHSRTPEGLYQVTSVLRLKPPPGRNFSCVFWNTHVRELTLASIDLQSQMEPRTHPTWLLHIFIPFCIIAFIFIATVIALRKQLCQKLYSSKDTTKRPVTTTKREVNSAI
# Measurement Protocol: blocking of hPD-1 binding to CHO-K1/hPD-L2 cells
pIC50: −log10 of the molar value.
A collection of binders and their measured pIC50
Measured Quantity: pIC50

- Binder: "11C11-H5 (antibody, V domains shown, Both formats under this entry) VH: QVQLVESGGGVVQPGRSLRLSCAASGFAFSAYGMHWVRQAPGKGLEWVAISWYDGSNNYHADSVKGRFTISRDSSKNTLYLQMNSLRAEDTAVYYCAKSIGVARHYYYGMDVWGQGTTVTVSS VL: SYELTQPPSVSVSPGQTASITCSGEELGDKYACWYQQKPGQSPVLVIYQDSKRPSGIPERFSGSNSGNAATLTISGTQAMDEADYYCQAWDSITVVFGGGTKLTVLG"
  Measured Quantity: "pIC50"
  Readout Value: 9.39
- Binder: "19B3-B3 (antibody, V domains shown, Both formats under this entry) VH: QVQLVQSGAEVKKPGASVKVSCMASGYTFTNYAIHWVRQAPGQRLEWMGWINTGLGKPKYSQMFQDRVTITRDTSASTASMELSGLRSDDTAVYYCARVGWELYFDYWGQGTLVTVSS VL: DIQMTQSPSTLSASVGDRVTITCRASQSISSLLAWYQQKPGKAPKLLIYKASSLESGVPSRFSGSGSGTEFTLTISSLQPDDFATYFCQQYNSYWTFGQGTKVEIK"
  Measured Quantity: "pIC50"
  Readout Value: 9.40
